Test Details: Saturation solubility studies in various mediums
Assay Context: 0.1N HCl, 25 °C, simulated gastric fluid, thermodynamic from solid
Metric Name: solubility (µg/mL)
Give the number; µg/mL is assumed, so skip it.

What value of measured solubility is listed for Cc1cn(-c2cc(NC(=O)c3ccc(C)c(Nc4nccc(-c5cccnc5)n4)c3)cc(C(F)(F)F)c2)cn1.Cl [Form L] ?
1860

* * *

Test Details: Saturation solubility studies in various mediums
Assay Context: water, 25 °C, thermodynamic from solid
Description: Saturation solubility studies were conducted in various mediums for nilotinib hydrochloride Form L of the present invention and nilotinib hydrochloride monohydrate Form B (U.S. Pat. No. 8,415,363).
Metric Name: solubility (µg/mL)
All answers are understood in µg/mL, so give the number only.

# input compound: Cc1cn(-c2cc(NC(=O)c3ccc(C)c(Nc4nccc(-c5cccnc5)n4)c3)cc(C(F)(F)F)c2)cn1.Cl [Form L] ; wanted: its solubility
160
